assay summary: NCI Yeast Anticancer Drug Screen. Data for the rad18 strain (AID 177)
run parameters: S. cerevisiae rad18 mutant growth inhibition; at 100.0 µM
This is part of a sample that, as a whole, favours compounds with a hit. Of some 79,000 tested, about 15% had one in any assay. The source made the active and inactive calls. Cut-off read from the data, not from the text of the source: active = growth inhibition above about 70%; inactive = the rest.
Outcomes: true = active, false = inactive

[[record]]
molecule = "CNCCCNc1c2ccccc2nc2cccc([N+](=O)[O-])c12"
discrete_label = "true"

[[record]]
molecule = "Nc1n[n+]([O-])c2ccc(Cl)cc2[n+]1[O-]"
discrete_label = "true"

[[record]]
molecule = "CC(C)OC(=O)Nc1ccc2nc(-c3cscn3)[nH]c2c1"
discrete_label = "true"

[[record]]
molecule = "O=C1c2cccnc2C(=O)C2C3C=CC(C3)C12 (stereo not given)"
discrete_label = "true"

[[record]]
molecule = "CC(=O)Nc1ccc(/C=C/[N+](=O)[O-])cc1"
discrete_label = "true"

[[record]]
molecule = "O=C(Nc1ccc(Cl)cc1)Nc1nnc2nc(C(C(=O)c3cccc([N+](=O)[O-])c3Cl)c3nc4nnc(NC(=O)Nc5ccc(Cl)cc5)n4[nH]c3=O)c(=O)[nH]n12"
discrete_label = "false"

[[record]]
molecule = "O=C1Nc2ccccc2/C1=C/c1ccccc1"
discrete_label = "true"

[[record]]
molecule = "CCCCC/C(=C(\\C#N)C(=O)OCC)c1ccccc1"
discrete_label = "false"

[[record]]
molecule = "CCCCCCSc1ncnc2[nH]ncc12"
discrete_label = "false"

[[record]]
molecule = "O=C1Nc2ccc(Br)cc2C1=Nc1ccc2c(c1)OCO2"
discrete_label = "false"

[[record]]
molecule = "O=[N+]([O-])c1ccc2c(c1)/C(=N/N=C1c3ccccc3Cc3ccccc31)c1cc([N+](=O)[O-])cc([N+](=O)[O-])c1-2"
discrete_label = "true"

[[record]]
molecule = "CCCCCCC(O)CNCc1ccnc2ccc(OC)cc12 (stereo not given)"
discrete_label = "false"

[[record]]
molecule = "NC(=O)c1c([N+](=O)[O-])cc(C(F)(F)F)cc1[N+](=O)[O-]"
discrete_label = "false"

[[record]]
molecule = "Cc1ccc(S/C(=C\\C(=O)O)c2ccccc2)cc1"
discrete_label = "false"

[[record]]
molecule = "O=C(NCCCl)Sc1ccc(Cl)cc1"
discrete_label = "true"

[[record]]
molecule = "O=C(/C=C(/c1ccccc1)N1CCCCC1)c1ccccc1"
discrete_label = "true"

[[record]]
molecule = "O=C(O)c1cc2ccc(Cl)cc2c(O)c1C1=CCCCC1"
discrete_label = "true"

[[record]]
molecule = "C/C(=N\\Nc1ccc([N+](=O)[O-])cc1[N+](=O)[O-])c1sc(-n2nc(-c3ccccc3)cc2-c2ccccc2)nc1C"
discrete_label = "false"

[[record]]
molecule = "COc1cc(C2SCC(=O)N2c2ccc(-c3ccc(-n4c(-c5ccccc5)nc5ccccc5c4=O)cc3)cc2)ccc1O (stereo not given)"
discrete_label = "false"

[[record]]
molecule = "O=C(O)c1ccccc1/C=N/N=C1c2ccccc2-c2ccccc21"
discrete_label = "false"

[[record]]
molecule = "CCCC/C([O-])=C1/C(=O)N(c2ccccc2)N=C1C.CCCC/C([O-])=C1/C(=O)N(c2ccccc2)N=C1C.[Cu+2]"
discrete_label = "false"

[[record]]
molecule = "CCC1(OC(=O)CN2CCN(CCO)CC2)C(=O)OCc2c1cc1n(c2=O)Cc2cc3ccccc3nc2-1 (stereo not given)"
discrete_label = "false"

[[record]]
molecule = "COC(=O)C1(C)CCc2c(ccc3ccccc23)C1=O (stereo not given)"
discrete_label = "false"

[[record]]
molecule = "O=C(c1ccc([N+](=O)[O-])cc1)C1N=NCC1c1ccccc1 (stereo not given)"
discrete_label = "false"

[[record]]
molecule = "CC1=CC(=C(c2ccc(N)cc2)c2ccc(N)cc2)C=CC1=N"
discrete_label = "true"

[[record]]
molecule = "Cc1ccc2c(c1)C1(SC(C)C(=O)N1c1ccc(Cl)cc1)C(=O)N2 (stereo not given)"
discrete_label = "true"

[[record]]
molecule = "O=C1CC(=O)c2ccccc21"
discrete_label = "true"

[[record]]
molecule = "COC(=O)/C=C(/CC(=O)OC)C(=O)OC"
discrete_label = "false"

[[record]]
molecule = "Cc1ccc2c3ccc4c(c3n(C)c2c1)C(=O)C=CC4=O"
discrete_label = "true"

[[record]]
molecule = "COc1cc(O)c(O)c(C(C)(C)C)c1"
discrete_label = "false"

[[record]]
molecule = "Cc1ccc(N=Nc2ccc(O)c(=O)cc2)cc1"
discrete_label = "true"

[[record]]
molecule = "O=[N+]([O-])c1cccc2nc3ccccc3c(NCCCn3ccnc3[N+](=O)[O-])c12"
discrete_label = "true"

[[record]]
molecule = "Oc1ccc2c(c1)C(O)CCCC2 (stereo not given)"
discrete_label = "true"

[[record]]
molecule = "Nc1ncnc2c1ncn2C1OC(CO)CC1O (stereo not given)"
discrete_label = "true"

[[record]]
molecule = "Cc1ccc(NC(=O)/C(CC2N=c3c(ccc4c(O)c5ccccc5c(O)c34)=NC2O)=N/NC(C)(C)C)cc1 (stereo not given)"
discrete_label = "false"

[[record]]
molecule = "c1ccc(Cc2cc(-c3ccccc3)n[nH]2)cc1"
discrete_label = "false"

[[record]]
molecule = "O=C(O)C1CC(c2ccccc2)=NN1c1ccccc1 (stereo not given)"
discrete_label = "true"

[[record]]
molecule = "CCc1c(Cl)c(C)cc(O)c1Cl"
discrete_label = "false"

[[record]]
molecule = "O=C1NC(=O)c2ccc([N+](=O)[O-])c3cccc1c23"
discrete_label = "true"

[[record]]
molecule = "COc1ccc2c(c1)n([O-])c1ccccc1[n+]2=O"
discrete_label = "true"

[[record]]
molecule = "COC(=O)CCC(NC(=S)N/N=C(\\C)c1ccccn1)C(=O)OC (stereo not given)"
discrete_label = "true"

[[record]]
molecule = "Oc1ccc2ccccc2c1CCc1c(O)ccc2ccccc12"
discrete_label = "true"

[[record]]
molecule = "Nc1nc2ccc(NCc3ccc(C(=O)NC(CCC(=O)O)C(=O)O)cc3)cc2c(=O)[nH]1 (stereo not given)"
discrete_label = "false"

[[record]]
molecule = "CCOC(=O)/C(=C\\c1ccc(C#N)cc1)C(C)=O"
discrete_label = "true"

[[record]]
molecule = "Cc1cccc(C(C)(C)C)c1NC(=O)C(C#N)C1=C(Cl)C(=O)c2ccccc2C1=O (stereo not given)"
discrete_label = "true"


Just for reference, PubChem BioAssay (NCI) is where these values come from.
